# Test system: TNFa-induced NF-kB reporter cells, inhibition
# experimentalDetails: analog potency on TNFa NF-kB signaling – cell-based, revised, SAR follow-up (AID 2337)
Documented pIC50 across a set of compounds
To interpret pIC50, take it as minus log10 of a concentration measured in moles per litre.

INSERT INTO measurements (compound, targetsystem, assayvalue) VALUES
  ('CC1Sc2ccc(S(=O)(=O)N3CCC(C(=O)Nc4ccc(Cl)cc4)CC3)cc2NC1=O (configuration not stated)', 'TNFa-induced NF-kB reporter cells, inhibition', 5.50);

Q: Quote TNFa-induced NF-kB reporter cells, inhibition pIC50 for entry O=C(Nc1nc2c(F)cc(F)cc2s1)c1ccc([N+](=O)[O-])o1 .
A: 4.71
